# Tested on: Plasmodium falciparum
# method-summary: Screen against P. falciparum Asexual Blood Stage (ABS), at 5uM
# Assay type: functional, Dd2
# condition-label: tested at 5 uM
Among all 65,000 compounds or so, about 2,100 (3.2%) showed an effect of 50% or more. The median lay at about -52%. For the sample, strong results were picked, then their nearest neighbours and some compounds at random.
Please go through the items and note down their INHIBITION.
# number only, unit % dropped from output

IN: State the recorded INHIBITION for this entry: CC(O)CNCc1ccc(OCc2ccc3c(c2)OCCO3)cc1 (stereo not drawn)
OUT: -169

IN: Ok, now "COCC(=O)N1CCC(c2nc3ccc(-c4ccncc4)cn3n2)CC1"
OUT: -48.7

IN: Ok, now O=C(CCN1CCCC1c1cccc2c1OCCO2)N1CCOCC1 (stereo not drawn)
OUT: -24.9

IN: Ok, now "COc1cc(NC(=O)NCc2nccn2C)ccc1Br"
OUT: -84.1

IN: Ok, now Clc1cccnc1N1CCC(C2CCN(Cc3cccnc3)CC2)C1 (stereo not drawn)
OUT: -49.5

IN: Ok, now Cc1cccc(C(C(=O)NC(C)(C)CN2CCOCC2)N(C)C)c1 (stereo not drawn)
OUT: 32

IN: Ok, now CN1CCN(C2COC3(CCN(Cc4ccsc4)CC3)C2)CC1 (stereo not drawn)
OUT: -10.7

IN: Ok, now O=C(CCN1CCOC(C(F)(F)F)C1)NCc1cccc(Cl)c1 (stereo not drawn)
OUT: -53.515

IN: Ok, now "OCc1cn([C@@H]2c3ccccc3C3(CCNCC3)[C@H]2O)nn1"
OUT: -114

IN: Ok, now "CCCn1c(NCCc2ccccc2)nc2c(C)nn(C)c2c1=O"
OUT: -42.9

IN: Ok, now Cc1ccc(C(C(=O)NCCN2CCC(CO)CC2)N(C)C)cc1 (stereo not drawn)
OUT: -9.75

IN: Ok, now "O=S(=O)(Cc1ccccc1CN1CC[C@H](CO)[C@H](O)C1)c1ccccc1"
OUT: 16.9

IN: Ok, now "Cc1ccc(C(=O)O)cc1CNC(=O)CN1CC[C@](C)(O)C(C)(C)C1"
OUT: -0.0274

IN: Ok, now N#Cc1ccsc1NC(=O)CN1CCOC(Cn2cccn2)C1 (stereo not drawn)
OUT: -49.6

IN: Ok, now COCCN1CCCC1c1cccc2c1OCCO2 (stereo not drawn)
OUT: -0.537

IN: Ok, now O=C1NCC2(CCCN(CCc3ccccc3)C2)Oc2ccccc21 (stereo not drawn)
OUT: 51.7

IN: Ok, now "Cc1ncsc1CN1C[C@H](NC(=O)C2CCOCC2)[C@@H](C(C)C)C1"
OUT: -21.1

IN: Ok, now "CN(C)CC(=O)N1CCC2(CCc3ccc(-c4ccncc4)cc32)CC1"
OUT: -41.7

IN: Ok, now CCNC(=O)CCN1CCCC1c1cccc2c1OCCO2 (stereo not drawn)
OUT: 52.7

IN: Ok, now O=C(CCN1CCCC(CC2CC2)(C(=O)O)C1)NC1CCCC1 (stereo not drawn)
OUT: -79.9

IN: Ok, now Cc1ccc(C(C(=O)NCCN2CCCCCC2)N(C)C)cc1 (stereo not drawn)
OUT: 58.5

IN: Ok, now "COC1CCN(c2ccc(NC(=O)C3CC3)cc2C(F)(F)F)CC1"
OUT: 7.84

IN: Ok, now "CCn1ncc(-c2cc(C(F)(F)F)nc(N3CCC(N)CC3)n2)c1C"
OUT: 65.2

IN: Ok, now "COc1ccc(CNCCc2cc(F)cc3c2OCOC3)c(OC)c1"
OUT: 55.4

IN: Ok, now CS(=O)(=O)NCCN(CCCO)C1CCc2ccccc21 (stereo not drawn)
OUT: -55.5

IN: Ok, now CCCC1CCCN(C(=O)Nc2ccc(F)c(C(N)=O)c2)CC1 (stereo not drawn)
OUT: -46

IN: Ok, now O=C(c1n[nH]c(=O)c2ccccc12)N1CCC(O)(CN2CCOCC2)C1 (stereo not drawn)
OUT: -74.2

IN: Ok, now CCCC(NC(=O)c1cc(C)c(F)cc1F)c1nnn[nH]1 (stereo not drawn)
OUT: -94.1

IN: Ok, now CCN(CC1CCOC1)S(=O)(=O)Cc1cc(Cl)ccc1OC (stereo not drawn)
OUT: 59.1

IN: Ok, now "O=c1[nH][nH]cc1-c1ccnc(NCCN2CCCCC2)n1"
OUT: -153

IN: Ok, now NC(=O)NC(=O)CCN1CCCC1c1cccc2c1OCCO2 (stereo not drawn)
OUT: 24.8

IN: Ok, now "CC(=O)c1cccc(OCC(=O)NS(=O)(=O)c2ccc(Br)s2)c1"
OUT: -85.3

IN: Ok, now "COc1ccc(OCCN(C)c2cc(C)nc(N)n2)cc1"
OUT: 63.7

IN: Ok, now CC(C(=O)Nc1ccc(N2CCOCC2)nc1)n1cncn1 (stereo not drawn)
OUT: -27

IN: Ok, now "CN(C(=O)CSc1ncc[nH]1)C1CC1"
OUT: -11.8

IN: Ok, now "Cc1ccc(S(=O)(=O)NCCc2cccnc2)cc1C"
OUT: -35.5

IN: Ok, now Cc1ccc(C(C(=O)NC(C)(C)CN2CCCC2)N(C)C)cc1 (stereo not drawn)
OUT: 52

IN: Ok, now Cn1ccnc1C(=O)N1CCC2(CCN2c2ncccn2)C1 (stereo not drawn)
OUT: -49.3

IN: Ok, now "N[C@@H]1CCN(Cc2ccccc2CS(=O)(=O)c2ccccc2)C[C@H]1O"
OUT: -23.3

IN: Ok, now "Cc1cnc(N2C[C@@H]3[C@@H](C2)OCC(=O)N3CCN(C)C)nc1"
OUT: -122

IN: Ok, now "Cc1ccc2c(c1)CCC21CCN(C(=O)CO)CC1"
OUT: -19.8

IN: Ok, now "Cc1ccc2c(c1)CCC21CCN(C(=O)CN(C)C)CC1"
OUT: 50.7

IN: Ok, now Cc1ccccc1OCC1CCCN(C(=O)CNC(=O)N(C)C)C1 (stereo not drawn)
OUT: -158

IN: Ok, now "Cc1cccc(-c2ccc(C(=O)N3CCSCC3)c(=O)[nH]2)c1"
OUT: -14.2

IN: Ok, now CC(=O)NCC(=O)N1CCC(C2CCN(Cc3ccc(Cl)cc3)C2)CC1 (stereo not drawn)
OUT: 5.47

IN: Ok, now O=C(C1CCCC1)N1CCC(C2CCN(Cc3ccc(Cl)cc3)C2)CC1 (stereo not drawn)
OUT: 64.3

IN: Ok, now Cc1ccccc1OCC1CCCN(C(=O)CN(C)C2CCNCC2)C1 (stereo not drawn)
OUT: 57.5

IN: Ok, now O=C(OCC1CCN(c2ccccc2)C1)c1cscn1 (stereo not drawn)
OUT: 0.13

Hello, the source for this data is ChEMBL document CHEMBL4513216, in case you need it.
